Tested on: P388
assay.protocol: Antineoplastic activity against mouse P388 cells allografted in CDF1 mouse assessed as host survival time at 5 mg/kg administered daily for 6 days starting 24 hrs after tumor implantation (reference value: 11.2 +/- 0.4 days)
Assay type: functional
In this section, each of the molecules is paired with its reported Time.
Only the number, expressed in days, is required.

So what does the record say about Time for NC(=S)N/N=C1\CCCc2cccnc21 ?
11.8

So what does the record say about Time for C=CCNC(=S)N/N=C1\CCCc2cccnc21 ?
13.2

So what does the record say about Time for CNC(=S)N/N=C1/CCCc2cccnc21 ?
12

Further cases:
So what does the record say about Time for CNC(=S)N/N=C1\CCCc2cccnc21 ?
16

So what does the record say about Time for NC(=S)N/N=C1/CCCc2cccnc21 ?
13

So what does the record say about Time for C=CCNC(=S)N/N=C1/CCCc2cccnc21 ?
9.8

====

In this section, each of the compounds is paired with its reported Activity.
Test system: Mus musculus
assay.protocol: Toxicity in CDF1 mouse allografted with mouse P388 cells assessed as change in body weight at 2.5 mg/kg administered daily for 6 days starting 24 hrs after tumor implantation (reference value: -2.4%)
Format: organism-based
Set-up: dose 2.5 mg/kg
stated.conditions: in vivo
Only the number, expressed in %, is required.

// below: answered compounds
So what does the record say about Activity for C=CCNC(=S)N/N=C1/CCCc2cccnc21 ?
4.6

So what does the record say about Activity for NC(=S)N/N=C1\CCCc2cccnc21 ?
-5.3

So what does the record say about Activity for CNC(=S)N/N=C1\CCCc2cccnc21 ?
-9.3

Here is the next item to consider.
So what does the record say about Activity for C=CCNC(=S)N/N=C1\CCCc2cccnc21 ?
0.7

====

System: Mus musculus
assay.protocol: Toxicity in CDF1 mouse allografted with mouse P388 cells assessed as change in body weight at 10 mg/kg administered daily for 6 days starting 24 hrs after tumor implantation (reference value: -2.4%)
Type: organism-based
Parameters: dose 10 mg/kg
stated.conditions: in vivo
// label = label 1 if Activity is not less than -10%, otherwise label 0

The examples below pair each entry with its known result.
Is the recorded value of Activity equal to or greater than -10% for this molecule? NC(=S)N/N=C1\CCCc2cccnc21
label 0

Is the recorded value of Activity equal to or greater than -10% for this molecule? C=CCNC(=S)N/N=C1/CCCc2cccnc21
label 1

Is the recorded value of Activity equal to or greater than -10% for this molecule? CNC(=S)N/N=C1/CCCc2cccnc21
label 0

Is the recorded value of Activity equal to or greater than -10% for this molecule? C=CCNC(=S)N/N=C1\CCCc2cccnc21
label 1

Now for another entry.
Is the recorded value of Activity equal to or greater than -10% for this molecule? NC(=S)N/N=C1/CCCc2cccnc21
label 0

====

System: P388
assay.protocol: Antineoplastic activity against mouse P388 cells allografted in CDF1 mouse assessed as host survival time at 10 mg/kg administered daily for 6 days starting 24 hrs after tumor implantation (reference value: 11.2 +/- 0.4 days)
Assay type: functional
In this section, each of the molecules is paired with its reported Time.
Only the number, expressed in days, is required.

// below: answered molecules
So what does the record say about Time for CNC(=S)N/N=C1\CCCc2cccnc21 ?
2

So what does the record say about Time for C=CCNC(=S)N/N=C1/CCCc2cccnc21 ?
7.8

So what does the record say about Time for C=CCNC(=S)N/N=C1\CCCc2cccnc21 ?
14

So what does the record say about Time for NC(=S)N/N=C1/CCCc2cccnc21 ?
15.8

So what does the record say about Time for NC(=S)N/N=C1\CCCc2cccnc21 ?
14.8

Further cases:
So what does the record say about Time for CNC(=S)N/N=C1/CCCc2cccnc21 ?
13.6

====

System: P388
assay.protocol: Antineoplastic activity against mouse P388 cells allografted in CDF1 mouse assessed as prolongation of host survival time at 5 mg/kg administered daily for 6 days starting 24 hrs after tumor implantation relative to control
Type: functional
parameter: T/C (%)
Only the number, expressed in %, is required.

// below: answered compounds
So what does the record say about T/C for NC(=S)N/N=C1\CCCc2cccnc21 ?
106

So what does the record say about T/C for C=CCNC(=S)N/N=C1/CCCc2cccnc21 ?
88

So what does the record say about T/C for CNC(=S)N/N=C1/CCCc2cccnc21 ?
107

So what does the record say about T/C for CNC(=S)N/N=C1\CCCc2cccnc21 ?
143

So what does the record say about T/C for C=CCNC(=S)N/N=C1\CCCc2cccnc21 ?
118

Further cases:
So what does the record say about T/C for NC(=S)N/N=C1/CCCc2cccnc21 ?
116

Values from ChEMBL document CHEMBL3271941
